Measured IC50 of individual entries
target-under-test: COX-2 (Ovis aries, UniProt P79208)
Construct: purchased Cayman
Sequence (P79208 17-603): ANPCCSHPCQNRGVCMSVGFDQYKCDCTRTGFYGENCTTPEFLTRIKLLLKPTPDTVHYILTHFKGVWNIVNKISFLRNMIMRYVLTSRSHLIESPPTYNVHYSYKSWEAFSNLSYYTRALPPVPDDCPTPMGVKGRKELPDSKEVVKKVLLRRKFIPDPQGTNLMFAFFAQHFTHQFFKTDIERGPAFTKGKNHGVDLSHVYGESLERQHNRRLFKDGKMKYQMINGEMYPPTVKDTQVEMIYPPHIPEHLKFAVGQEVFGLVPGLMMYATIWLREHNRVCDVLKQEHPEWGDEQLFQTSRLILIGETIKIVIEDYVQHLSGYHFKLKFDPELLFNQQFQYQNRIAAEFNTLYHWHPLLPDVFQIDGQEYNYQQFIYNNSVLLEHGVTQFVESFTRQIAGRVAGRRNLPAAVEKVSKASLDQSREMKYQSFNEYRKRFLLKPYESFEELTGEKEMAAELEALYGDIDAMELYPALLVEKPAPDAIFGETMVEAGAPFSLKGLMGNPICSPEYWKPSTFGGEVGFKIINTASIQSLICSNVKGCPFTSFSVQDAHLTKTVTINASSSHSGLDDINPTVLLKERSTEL
test-description: COX (ovine) colorimetric inhibitor screening assay, COX-2
Assay type: biochemical
experimental-setup: ovine COX-2, colorimetric, triplicate, mean ± SD
The reply should be a number in µM, with the unit left off.

CC(=NNC(=O)Cc1c[nH]c2ccccc12)c1ccc(S(C)(=O)=O)cc1 [Compound 3f] ... 51
O=C(Cc1c[nH]c2ccccc12)NN=Cc1ccc(N2CCCC2)cc1 [Compound 3a] ... 12.5
COc1ccc2[nH]cc(C=NNC(=O)Cc3c[nH]c4ccccc34)c2c1 [Compound 3j] ... 44.5

Fill in the recorded IC50 for this compound, with COX-2 (Ovis aries, UniProt P79208) as test system: O=C(Cc1c[nH]c2ccccc12)NN=Cc1ccc(N2CCOCC2)cc1 [Compound 3b]
71

Fill in the recorded IC50 for this compound, with COX-2 (Ovis aries, UniProt P79208) as test system: O=C(Cc1c[nH]c2ccccc12)NNC(=S)Nc1ccc(-n2cccn2)cc1 [Compound 4e]
31.5

Fill in the recorded IC50 for this compound, with COX-2 (Ovis aries, UniProt P79208) as test system: CS(=O)(=O)c1ccc(C=NNC(=O)Cc2c[nH]c3ccccc23)cc1 [Compound 3e]
35

Fill in the recorded IC50 for this compound, with COX-2 (Ovis aries, UniProt P79208) as test system: O=C(Cc1c[nH]c2ccccc12)NNC(=S)Nc1ccc(OCc2ccccc2)cc1 [Compound 4g]
59.5

Fill in the recorded IC50 for this compound, with COX-2 (Ovis aries, UniProt P79208) as test system: O=C(Cc1c[nH]c2ccccc12)NNC(=S)Nc1ccc(S(=O)(=O)N2CCCCC2)cc1 [Compound 4d]
59

These data points were gathered from paper PMC9916685.
